# Test system: MALME-3M melanoma
# TEST NAME: NCI tumour cell line growth inhibition, 48 h
Where a SMILES comes first, the peptide text is derived from it. [ ]: non-standard residue; d: D form. The star is where a group is joined. Iva = CC[C](C)(N)C(=O)O; Boc = CC(C)(C)OC(=O)*; X52 = C1CCC(=NO*)C1
Recorded TGI, one value per entry.

Answered examples (3):
CCC(C)(NC(=O)C(C)NC(=O)OC(C)(C)C)C(=O)NC(C)C(=O)NC(C)(CC)C(=O)ON=C1CCCC1 (centres undefined) (Boc-A[Iva]A[Iva]-X52; configuration not given here)	> 100 µM
Cc1c(CCN2CCOCC2)c(N2CCOCC2)n2c(nc3ccccc32)c1C#N	> 10 µM
CN1C/C(=C\c2cccs2)C2=NN(C)C(c3cccs3)C2C1 (centres undefined)	> 100 µM

Input: Specify TGI for COc1ccc(S(=O)(=O)NC(CCC(=O)NN)C(=O)NN)cc1 (centres undefined) and stop.
Output: > 100 µM

* * *

# Test system: SF-268 CNS
# TEST NAME: NCI tumour cell line growth inhibition, 48 h
This section presents compounds with their documented TGI values.

// solved cases for TGI follow
COc1cc2c(cc1OC)-c1ccc3cc4c(cc3c1N(CCCn1ccnc1)C2)OCO4	53.4 µM
CC(=O)N1C/C(=C/c2ccc(Cl)cc2)C(=O)/C(=C/c2ccc(Cl)cc2)C1	4.02 µM
COc1ccc(-c2oc(=O)ccc2-c2cc(OC)c(OC)c(OC)c2)cc1O	> 72.1 µM
CCOC(=O)Cc1ccc2c(c1O)C(=O)c1c(ccc(CC(=O)OCC)c1O)C2=O	> 100 µM
CC1C/C(=C\c2ccc(OC(=O)C(C)(C)C)cc2)C(=O)/C(=C/c2ccc(OC(=O)C(C)(C)C)cc2)C1 (stereo not given)	> 100 µM

Pending compound:
Input: Give TGI for CCCCCCCCCCCCN1[C@H]2CCC[C@H]2C(O)[C@@H]2CCC[C@@H]21 (stereo not given in full)
Output: > 100 µM

* * *

# System: UACC-62 melanoma
# TEST NAME: NCI tumour cell line growth inhibition, 48 h
QUANTITY NAME: TGI

Example molecules with recorded TGI:
C#CC1(OC(C)=O)CCC2C3CC=C4C=C(OC(C)=O)CCC4(C)C3CCC21C (stereo not drawn)	44.5 µM
Cc1ccc(NC2=C(Cl)C(=O)N(Cc3ccc(Cl)cc3)C2=O)cc1O	39.4 µM
CC(=O)O/C=C1/C[C@H]2[C@@H]3CCC4CC(C(C)=O)CC[C@]4(C)[C@H]3CC[C@]2(C)C1=O (stereo partly drawn)	> 100 µM
Cc1occc1C(=S)Nc1ccc(Cl)c(C(=O)OC(C(C)C)C(C)C)c1	25.7 µM
CC(=O)[CH-]C(=O)c1ccccc1.CC(=O)[CH-]C(=O)c1ccccc1.CC(C)CCCC(C)[C@H]1CCC2[C@@H]3CC=C4C[C@@H]([O-])CC[C@]4(C)C3CC[C@@]21C.CC(C)CCCC(C)[C@H]1CCC2[C@@H]3CC=C4C[C@@H]([O-])CC[C@]4(C)C3CC[C@@]21C.[Ti+4] (stereo partly drawn)	> 100 µM

Input: Name the recorded TGI of the item COc1ccc(S(=O)(=O)NC(CCC(=O)NN)C(=O)NN)cc1 (stereo not drawn) in your answer.
Output: > 100 µM

* * *

# Tested on: SN12C renal
# TEST NAME: NCI tumour cell line growth inhibition, 48 h
Reported TGI values for the following molecules.

Sample answers from the record:
COc1cc(Nc2nc3ccccc3nc2NS(=O)(=O)c2ccc(NC(=O)c3ccc(C)c(OC)c3)cc2)cc(OC)c1	> 100 µM
C=C(C#N)C1OCC2OC(C)(C)OC21 (stereo not given)	38.2 µM
C[C@]12CC[C@@H]3c4cc(-c5ccc(F)cc5)c(O)cc4CC[C@H]3[C@@H]1CC[C@@H]2O	22.4 µM
Cc1cccc(C)c1NC(=O)C(=O)CC(=O)/C=C/c1ccccc1	> 100 µM
COc1cc2ncn(-c3cc(O[C@@H](C)c4ccccc4Cl)c(C(N)=O)s3)c2cc1OC	> 25 µM

Input: Given Oc1c(Cl)c(Cl)c(O)c(CCNc2ccc3ncccc3c2)c1Cl , report its TGI on SN12C renal.
Output: 28.9 µM

Input: Fill in: TGI on SN12C renal, entry CC(=O)[CH-]C(=O)c1ccccc1.CC(=O)[CH-]C(=O)c1ccccc1.CC(C)CCCC(C)[C@H]1CCC2[C@@H]3CC=C4C[C@@H]([O-])CC[C@]4(C)C3CC[C@@]21C.CC(C)CCCC(C)[C@H]1CCC2[C@@H]3CC=C4C[C@@H]([O-])CC[C@]4(C)C3CC[C@@]21C.[Ti+4] (stereo not given in full)
Output: > 100 µM

Input: With SN12C renal as the test system, provide measured TGI for this molecule: CCCC[C@H]1[C@@H](OCOc2ccccc2)COC(=O)N1[C@H](C)c1ccccc1
Output: 21.9 µM

Input: Write down the reported TGI (system: SN12C renal) of COC(=O)c1ccccc1C1CN=NC12Cc1ccccc1C2=O (stereo not given)
Output: > 100 µM

Input: Please respond with reported TGI (system SN12C renal) for O=C(N/N=C/c1c(-c2ccccc2)no[n+]1[O-])N1CCOCC1 .
Output: > 100 µM

* * *

# System: RPMI-8226 leukemia
# TEST NAME: NCI tumour cell line growth inhibition, 48 h
QUANTITY NAME: TGI

These recorded examples may help you get a feel for the data.
CCn1c(SCC(=O)N/N=C/c2ccccc2)nc2ccccc2c1=O	> 100 µM
Nn1c(CCCCCCCCc2nnc(COc3ccc4ccccc4c3O)n2N)nnc1COc1ccc2ccccc2c1O	99.2 µM
Cc1cccc(C)c1CO	> 100 µM
COc1ccc(S(=O)(=O)NC(CCC(=O)NN)C(=O)NN)cc1 (centres undefined)	> 100 µM
Cc1cc(=O)oc2c(C)c(O)ccc12	> 100 µM
O=C1O[C@H](c2ccccc2)[C@@H]2CC3(CCN12)OCCO3	> 100 µM

Input: Please supply the value of reported TGI for the item Cc1occc1C(=S)Nc1ccc(Cl)c(C(=O)OC(C(C)C)C(C)C)c1
Output: 29.6 µM

Input: Respond only with TGI recorded for COc1cc2ncn(-c3cc(O[C@@H](C)c4ccccc4Cl)c(C(N)=O)s3)c2cc1OC
Output: > 19 µM

Input: For the molecule COc1ccc(-c2cc(-c3cccn3C)c(C#N)c(=O)[nH]2)cc1OC , give its reported TGI.
Output: > 100 µM

* * *

# System: ACHN renal
# TEST NAME: NCI tumour cell line growth inhibition, 48 h
QUANTITY NAME: TGI

# annotated cases, reported TGI shown
CC[C@@H]1C(=O)OC[C@@H]1Cc1cncn1C	> 100 µM
CCCCCCCCCCCCN1[C@H]2CCC[C@H]2C(O)[C@@H]2CCC[C@@H]21 (some centres undefined)	> 100 µM
CC1=C(C(=O)Nc2cc(=O)n(C)c(=O)n2C)C(c2cccc([N+](=O)[O-])c2)C(C(=O)Nc2cc(=O)n(C)c(=O)n2C)=C(C)N1	> 100 µM
O=C(CCc1nnc2s/c(=C\c3ccc(Cl)c(Cl)c3)c(=O)n12)Nc1ccc(Cl)c(Cl)c1	> 100 µM

Input: // fetch TGI given entry CCCCCCc1ccc(C(=O)NO)cc1
Output: 88.5 µM

Input: Please report TGI for the following compound: CC(=O)c1cccc(C)c1C(=O)O
Output: > 100 µM

Input: Report measured TGI; entry is CCCCCCCCCCCCCCCCCCN(C)C(COC)COP(=O)([O-])OCC[N+](C)(C)C (centres undefined)
Output: 26.9 µM

Input: Supply measured TGI of O=C(O)c1ccc(Oc2nccc(-c3c(-c4ccc(F)cc4)ncn3C3CCNCC3)n2)cc1 in your reply.
Output: > 25 µM

Input: Supply reported TGI belonging to this compound: CCO/C=N\c1c(C#N)c(-c2ccc(Cl)cc2)cn1-c1ccc(C)cc1
Output: > 100 µM

* * *

# Tested on: K-562 leukemia
# TEST NAME: NCI tumour cell line growth inhibition, 48 h
Reported TGI values for a set of molecules

Check out these entries, answers already filled in.
COc1ccc(N2C(=O)[C@H]3[C@H]4CC(C(C)(C)C)CC[C@H]4c4c(n(C)c5ccccc45)[C@H]3C2=O)cc1 (stereo partly specified)	> 100 µM
COc1ccc(-c2cc(-c3ccc(Cl)cc3)nc(SCCCC(=O)NO)n2)cc1	> 100 µM
CC1=CC[C@H](C(C)C)C(C(O)[C@@H](C)O[Si](c2ccccc2)(c2ccccc2)C(C)(C)C)C1=O (stereo partly specified)	> 100 µM
Nc1ccc2c(=O)cc(-c3cccs3)[nH]c2n1	> 100 µM

Input: State its TGI for this molecule: Nc1nc2c(c(=O)[nH]1)C(c1ccccc1)CC(=O)N2 (stereo unspecified)
Output: > 100 µM

Input: Given COC(=O)c1cc2c3ccccc3n3c(=O)c4cc5ccccc5nc4c(n1)c23 , respond with its TGI.
Output: > 100 µM

Input: Note down TGI recorded for O=C(O)C1CCCCC1C(=O)Nn1cnnc1 (stereo unspecified)
Output: > 100 µM

Input: Please report the measured TGI for Cc1cccc(C)c1CO
Output: > 100 µM

Input: Assign TGI to the following record: COc1cc(/C=C2\N=C(c3ccccc3)N(c3nc4cc(C)c(C)cc4s3)C2=O)ccc1O
Output: > 100 µM

Input: Tell us which TGI value is on record for CN(C)CCNC(=O)c1cccc2nc3cc(Cl)ccc3nc12
Output: 4.14 µM

Input: Give a short answer stating reported TGI for O=C(Nc1ccccc1)c1cc2ccccc2c(N=Nc2ccc([N+](=O)[O-])cc2)c1O .
Output: > 100 µM

Input: Provide TGI value for the following molecule: CCOC(=O)NC1C2CC(=O)OC(O2)C1OC(C)=O (stereo unspecified)
Output: > 100 µM

Input: Identify measured TGI associated with COc1ccc(-c2cc(-c3cccn3C)c(C#N)c(=O)[nH]2)cc1OC
Output: > 100 µM

// data source = PubChem BioAssay (NCI)
